System: JAK2(JH1domain-catalytic)
Settings: Compound Concentration (nM):1000;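 note: KINOMEscan scanMAX binding as percent activity remaining versus control; lower means stronger binding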
Quick rule: Percent Control of at least 60% means condition met, below that means condition not met.

Use these answered entries as a reference point.
INSERT INTO measurements (compound, category_label) VALUES
  ('CN(C)c1cc2c(Nc3ccc4c(cnn4Cc4ccccc4)c3)ncnc2cn1 [GW282974X]', 'condition met'),
  ('COc1ccc2[nH]c3c4[nH]c5ccc(OC)cc5c4c4c(c3c2c1)C(=O)NC4=O [GW296115X]', 'condition met'),
  ('COc1cc(N2CCN(C(C)C)CC2)ccc1Nc1nc(Nc2ccc(F)cc2C(=O)NC[C@@H](O)CO)c2cc[nH]c2n1 [GSK1392956A]', 'condition met'),
  ('COc1cc(/C=N/Nc2ncnc3[nH]ncc23)ccc1O [GW578748X]', 'condition not met'),
  ('CN1CCN(C(=O)c2ccc(NC(=O)Nc3ccc(N(C)c4ccnc(Nc5ccc(CS(C)(=O)=O)cc5)n4)cc3)cc2)CC1.Cl [GW830263A]', 'condition not met'),
  ('CCn1c(-c2nonc2N)nc2c(C#CC(C)(C)O)nc(OCCNC)cc21.Cl [GSK949675]', 'condition met'),
  ('COc1ccc(COc2ccc(Cc3cnc(N)nc3N)cc2OC)cc1 [GW632580X]', 'condition met'),
  ('O=C(Nc1n[nH]c2nc(-c3ccc(O)cc3)c(Br)cc12)C1CC1 [SB-725317]', 'condition not met');

-- ask Assess whether reported Percent Control for Cl.O=C(Nc1ccc(Oc2ccc3[nH]c(NC(=O)c4ccco4)nc3c2)cc1)Nc1cc(C(F)(F)F)ccc1F [GW683134A] sits at 60% or higher.
-- reply condition met

-- ask Assess whether reported Percent Control for NS(=O)(=O)c1ccc(Nc2ncc(-c3ccccc3)o2)cc1 [GW572399X] sits at 60% or higher.
-- reply condition met

-- ask Assess whether reported Percent Control for Cl.O=S1CCN(Cc2ccc(-c3ccc4ncnc(Nc5ccc(OCc6ccccc6)c(F)c5)c4c3)o2)CC1 [GW576924A] sits at 60% or higher.
-- reply condition met

-- ask Assess whether reported Percent Control for COc1cccc(-c2c[nH]c3c(N/N=C/c4ccncc4)ncnc23)c1 [GW814408X] sits at 60% or higher.
-- reply condition not met

-- ask Assess whether reported Percent Control for O=C1Nc2ccc(C(=O)c3ccco3)cc2C1=Cc1cc(Cl)c(O)c(Cl)c1 [GW406108X] sits at 60% or higher.
-- reply condition not met

* * *

We begin with a simple list: items and their reported Percent Control.
Tested on: DAPK2
Settings: Compound Concentration (nM):1000
Please give a number only; it is taken to be in %.

Worked cases, answers included:
INSERT INTO results (molecule, recorded_measurement) VALUES
  ('CC1=C(C(=O)Nc2ccc3[nH]ncc3c2)C(c2ccc3ccccc3c2)CC(=O)N1 (centres unmarked) [GSK270822A]', 100),
  ('Nc1ncnc2occ(-c3ccc(NC(=O)Nc4cc(C(F)(F)F)ccc4F)cc3)c12 [GW770249X]', 100);

-- ask Would you mind telling me what Percent Control value was observed for CN1CCN(C(=O)c2ccc(NC(=O)Nc3ccc(N(C)c4ccnc(Nc5ccc(CS(C)(=O)=O)cc5)n4)cc3)cc2)CC1.Cl [GW830263A] ?
-- reply 100

-- ask Would you mind telling me what Percent Control value was observed for COc1cc2ncn(-c3cc(O[C@H](C)c4ccccc4Cl)c(C(N)=O)s3)c2cc1OC [GSK237701A] ?
-- reply 81

-- ask Would you mind telling me what Percent Control value was observed for COc1cccc(-c2c[nH]c3c(N/N=C/c4ccncc4)ncnc23)c1 [GW814408X] ?
-- reply 100

-- ask Would you mind telling me what Percent Control value was observed for COc1ccc2c(-c3ccnc(Nc4cccc(OC(F)(F)F)c4)n3)cnn2n1 [GW810372X] ?
-- reply 98

-- ask Would you mind telling me what Percent Control value was observed for CCc1ccc(Oc2nccc(-c3c(-c4ccc(F)cc4)ncn3C3CCNCC3)n2)cc1 [SB-242719] ?
-- reply 74

-- ask Would you mind telling me what Percent Control value was observed for C/C(Nc1ccc(S(N)(=O)=O)cc1)=C1/C(=O)Nc2ccccc21 [GW335962X] ?
-- reply 93

* * *

System: FYN
Conditions: Compound Concentration (nM):1000
API: label(entry) gives class 1 if the entry's Percent Control is strictly smaller than 90%; on equality or larger values it gives class 0.

INSERT INTO assay_data (compound, category_label) VALUES
  ('COc1cc2ncnc(Nc3ccc4c(cnn4Cc4ccccc4)c3)c2cc1OC.Cl [GW282449A]', 'class 0');

-- ask For this compound, is Percent Control lower than 90%? COc1ccc2cc(-c3c(-c4ccncc4)nc(-c4ccc(S(C)(=O)=O)cc4C)n3C)ccc2c1
-- reply class 1

* * *

We begin with a simple list: items and their reported Percent Control.
Tested on: RSK1(Kin.Dom.2-C-terminal)
Construct: gene RPS6KA1
Settings: Compound Concentration (nM):1000
Please give a number only; it is taken to be in %.

INSERT INTO measurements (compound, observation_type, unit_of_measure, recorded_measurement) VALUES
  ('Cc1cc(O)cc(C)c1/C=C/c1cncc(C(N)=O)c1 [GW435821X]', 'Percent Control', '%', 100);

-- ask Checklist item: Percent Control tested on RSK1(Kin.Dom.2-C-terminal), entry C/C(Nc1ccc(S(N)(=O)=O)cc1)=C1/C(=O)Nc2ccccc21 [GW335962X] , value?
-- reply 92

-- ask Checklist item: Percent Control tested on RSK1(Kin.Dom.2-C-terminal), entry CC1=C(C(=O)Nc2ccc3[nH]ncc3c2)C(c2ccc(Cl)c(Cl)c2)CC(=O)N1 (stereo not drawn) [GSK299115A] , value?
-- reply 81

* * *

System: NEK6
Settings: Compound Concentration (nM):1000
OBSERVATION_TYPE: Percent Control (%)
Please give a number only; it is taken to be in %.

Worked cases, answers included:
INSERT INTO measurements (compound, target_desc, recorded_measurement) VALUES
  ('CC1=C(C(=O)Nc2ccc3[nH]ncc3c2)C(c2ccc3ccccc3c2)CC(=O)N1 (centres unmarked) [GSK270822A]', 'NEK6', 100),
  ('Cl.O=C(O[C@H]1CN[C@H](C#Cc2cc3ncnc(Nc4ccc5c(cnn5Cc5ccccc5)c4)c3s2)C1)N1CCOCC1 [GSK200398A]', 'NEK6', 100);

Please look at the following compound next.
-- ask Checklist item: Percent Control tested on NEK6, entry Cl.O=C(Nc1ccc(Oc2ccc3[nH]c(NC(=O)c4ccccc4)nc3c2)cc1)Nc1cc(C(F)(F)F)ccc1F [GW709042A] , value?
-- reply 92

* * *

Test system: DYRK1B
Conditions: Compound Concentration (nM):1000
OBSERVATION_TYPE: Percent Control (%)
Please give a number only; it is taken to be in %.

-- ask Would you mind telling me what Percent Control value was observed for COc1cc(N2CCN(C(C)C)CC2)ccc1Nc1nc(Nc2ccc(F)cc2C(=O)NC[C@@H](O)CO)c2cc[nH]c2n1 [GSK1392956A] ?
-- reply 75

-- ask Would you mind telling me what Percent Control value was observed for Cl.O=C(O[C@H]1CN[C@H](C#Cc2cc3ncnc(Nc4ccc5c(cnn5Cc5ccccc5)c4)c3s2)C1)N1CCOCC1 [GSK200398A] ?
-- reply 100

-- ask Would you mind telling me what Percent Control value was observed for COc1ccc2c(-c3ccnc(Nc4cccc(OC(F)(F)F)c4)n3)cnn2n1 [GW810372X] ?
-- reply 13

* * *

Test system: CHEK2
Conditions: Compound Concentration (nM):1000
We begin with a simple list: items and their reported Percent Control.
Please give a number only; it is taken to be in %.

Worked cases, answers included:
INSERT INTO assay_data (compound, target_desc, observation_type, recorded_measurement) VALUES
  ('CC(C)COC(=O)c1ccc2c(c1)/C(=C/Nc1ccc(S(N)(=O)=O)cc1)C(=O)N2 [GW416981X]', 'CHEK2', 'Percent Control', 42),
  ('COc1ccc2c(-c3ccnc(Nc4cccc(OC(F)(F)F)c4)n3)cnn2n1 [GW810372X]', 'CHEK2', 'Percent Control', 100),
  ('O=C1Nc2ccc(C(=O)c3ccco3)cc2C1=Cc1cc(Cl)c(O)c(Cl)c1 [GW406108X]', 'CHEK2', 'Percent Control', 42),
  ('COc1cc(C=NNc2ncnc3c2cnn3-c2ccccc2)ccc1O [GW513184X]', 'CHEK2', 'Percent Control', 97),
  ('COc1cc(C)c(N(C)C(=O)CN(C)C)cc1Nc1nc(Nc2cccc(F)c2C(N)=O)c2cc[nH]c2n1', 'CHEK2', 'Percent Control', 69);

-- ask Would you mind telling me what Percent Control value was observed for COc1ccc(COc2ccc(Cc3cnc(N)nc3N)cc2OC)cc1 [GW632580X] ?
-- reply 100

-- ask Would you mind telling me what Percent Control value was observed for COc1ccc2cc(-c3c(-c4ccncc4)nc(-c4ccc(S(C)(=O)=O)cc4C)n3C)ccc2c1 ?
-- reply 100

-- ask Would you mind telling me what Percent Control value was observed for CC1=C(C(=O)Nc2ccc3[nH]ncc3c2)C(c2ccc3ccccc3c2)CC(=O)N1 (centres unmarked) [GSK270822A] ?
-- reply 100
